# System: EPHA2;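 also: KINOMEscan kinase panel screen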
# Assay setup: concentration: 1 μM, replicates: in singlicate; n = 1
Entries annotated with measured %Inh
Please reply with the bare figure in % and do not write the unit itself.

Here is how some compounds turned out for %Inh.
1) c1ccc(Oc2ccc(Nc3ccnc4cc(-c5ccc(CN6CCCCC6)o5)ccc34)cc2)nc1 : 0
2) Cl.N#CCc1ccc(Nc2nccc(Nc3ccc(Oc4ccccc4)cc3)n2)cc1 : 9
3) Cc1ccccc1CC(=O)N1CCc2cc(-c3cn(C)c4ncnc(N)c34)ccc21 : 5

// Cn1cc(-c2cnc(N)c3c(-c4ccc5c(c4)CCN5C(=O)Cc4ccccc4)csc23)cn1 : %Inh value = 0

# %Inh (compound: Nc1cccc(-c2ccc3c(N)n[nH]c3c2)c1 ) is 5

Values were extracted from paper PMC5540273.
